- subjectOfTest: Na^+,K^+ -ATPase (Homo sapiens, UniProt P05023)
- Construct: Na^+,K^+ -ATPase receptor purified according to Jorghensen; from tissue
- assayText: inhibition of the activity of the purified Na+,K+-ATPase measured as % of hydrolysis of 32P-ATP
- Assay type: biochemical
- protocolConditions: purified Na+,K+-ATPase, 32P-ATP hydrolysis; read-out: Inhibitory Activity log IC50 (converted)
molecules and their reported IC50
Mention the unit after the number when you answer.

Solved cases below.
get_value(item= `C[C@]12CC[C@H]3[C@@H](CCC4=C[C@@H](OCCCN)CC[C@@]43C)[C@@]1(O)CC[C@]2(O)c1ccoc1` , readout=IC50) returns 12.6 µM

get_value(item= C[C@]12CC[C@H]3[C@@H](CCC4=C[C@@H](OCC(N)CN)CC[C@@]43C)[C@@]1(O)CC[C@]2(O)c1ccoc1 (some centres unmarked) , readout=IC50) returns 100 µM

get_value(item= `C[C@]12CC[C@H]3[C@@H](CC=C4C[C@@H](O)CC[C@@]43C)[C@@]1(O)CC[C@]2(O)c1ccccc1` , readout=IC50) returns 100 µM

get_value(item= `C[C@]12C=C[C@H](O)C[C@@H]1CC[C@@H]1[C@@H]2CC[C@]2(C)[C@@](O)(c3ccoc3)CC[C@]12O` , readout=IC50) returns 31.6 µM

Would you kindly look at the next entry?
get_value(item= `C[C@]12CC[C@H]3[C@@H](CC=C4C[C@@H](O)CC[C@@]43C)[C@@]1(O)CC[C@]2(O)c1ccc(Cl)cc1` , readout=IC50) returns 100 µM

* * *

- Test system: spontaneous hypertensive rats (MHS)
- assayText: blood pressure lowering in spontaneous hypertensive MHS rats (indirect tail-cuff, oral, ten days)
- Format: in vivo, rat (Milan hypertensive strain
- protocolConditions: n = 7, 20 mg/Kg/os daily in METHOCEL 0.5% w/v, controls 172 +/- 2.0
parameter: SBP (systolic blood pressure)

Solved cases below.
The reported spontaneous hypertensive rats (MHS) SBP (systolic blood pressure) of `C[C@]12CC[C@H]3[C@@H](CCC4=C[C@@H](O)CC[C@@]43C)[C@@]1(O)CC[C@]2(O)c1ccoc1` is 154 +/- 4.1 mm Hg

The reported spontaneous hypertensive rats (MHS) SBP (systolic blood pressure) of `C[C@]12CC[C@H]3[C@@H](CCC4=C[C@@H](OCCCN)CC[C@@]43C)[C@@]1(O)CC[C@]2(O)c1ccoc1` is 150 +/- 3.9 mm Hg

The reported spontaneous hypertensive rats (MHS) SBP (systolic blood pressure) of C[C@]12CC[C@H](O)C[C@H]1CC[C@@H]1[C@@H]2CC[C@]2(C)[C@@](O)(C3=CC(=O)OC3)CC[C@]12O [Ref. comp., reference compound] is 174 +/- 2.1 mm Hg

The reported spontaneous hypertensive rats (MHS) SBP (systolic blood pressure) of `C[C@]12CC[C@H]3[C@@H](CCC4=C[C@@H](OCCCN)CC[C@@]43C)[C@@]1(O)CC[C@]2(O)c1ccccc1` is 157 +/- 3.7 mm Hg

Would you kindly look at the next entry?
The reported spontaneous hypertensive rats (MHS) SBP (systolic blood pressure) of `C[C@]12CC[C@H](O)C[C@@H]1CC[C@@H]1[C@@H]2CC[C@]2(C)[C@@](O)(c3cccnc3)CC[C@]12O` is 156 +/- 3.5 mm Hg
